normalized signal at concentration 1.11111 for assorted molecules
Tested on: Plasmodium berghei (Pb-Luc) exoerythrocytic-stage parasites
Experimental setup: first series of columns; concentration 1.11111; fraction of control
Respond using a number only.

Record excerpt, results attached:
Cc1noc(C)c1S(=O)(=O)N(C)C[C@@H]1OCCCC[C@@H](C)Oc2ccc(N(C)C)cc2C(=O)N([C@@H](C)CO)C[C@H]1C: 0.9576
CO[C@H]1CN(C)C(=O)c2cc(NC(=O)c3cccc(F)c3)ccc2OC[C@H](C)N(C)C[C@H]1C: 0.9407

Consider now this further molecule.
Can you look up the measured normalized signal at concentration 1.11111 of `Cc1noc(C)c1S(=O)(=O)N(C)C[C@H]1OCc2cn(nn2)CCCC(=O)N([C@@H](C)CO)C[C@@H]1C` for me?
0.9189

----------
System: Plasmodium berghei (Pb-Luc) exoerythrocytic-stage parasites
Experimental setup: concentration 0.123457, second replicate series; fraction of control
Quantity kind: normalized signal at 0.123457 (second series)

C[C@@H]1CN([C@H](C)CO)C(=O)c2ccccc2-c2ccccc2CO[C@H]1CN(C)C(=O)[C@H](Cc1ccccc1)N(C)C [BRD-K75961033-001-01-7]: 0.6648
N#C[C@@H]1[C@H](c2ccccc2C2=CCCC2)[C@H](CO)N1C(=O)C1CCOCC1 [BRD-K53180201-001-01-6]: 1.034
COc1ccc(NC(=O)N(C)C[C@H]2Oc3c(NC(=O)CCCCCC(=O)Nc4ccccc4N)cccc3C(=O)N([C@H](C)CO)C[C@H]2C)cc1 [BRD-K75018854-001-01-2]: 1.0322
C[C@@H]1CN([C@H](C)CO)C(=O)c2cccc(NC(=O)c3ccc(-c4nccs4)cc3)c2O[C@H]1CN(C)C(=O)Nc1ccc(C(F)(F)F)cc1 [BRD-K64517877-001-01-9]: 0.9202
COc1ccc(NC(=O)N(C)C[C@H]2Oc3ccc(NC(=O)Nc4cccc5ccccc45)cc3CC(=O)N([C@@H](C)CO)C[C@@H]2C)cc1 [BRD-K15104969-001-01-5]: 0.8011

Quick check: normalized signal at 0.123457 (second series) of O=C(Cc1ccccn1)N1CC2(C1)[C@H](c1ccccc1)[C@H](CO)N2C(=O)c1ccncc1 [BRD-K71274172-001-01-0] ?
1.008

Dear colleague, I am looking for the recorded normalized signal at 0.123457 (second series) of the following compound: O=C(C[C@@H]1CC[C@@H]2[C@H](COC[C@@H](O)CN2C(=O)c2ccncc2)O1)Nc1ccc(-c2ccccc2)cc1 [BRD-K17686828-001-01-0]
0.5683

I have this compound here, C/C=C/c1ccc([C@H]2[C@@H](CO)N(CC3CCCCC3)[C@@H]2CNC(C)C)cc1 [BRD-K19633528-001-01-3] , and I need its recorded normalized signal at 0.123457 (second series).
0.8556

Which normalized signal at 0.123457 (second series) is listed for C[C@H]1CN([C@@H](C)CO)C(=O)c2cccc(NC(=O)c3ccc(-c4nccs4)cc3)c2O[C@@H]1CN(C)C(=O)Nc1ccc(C(F)(F)F)cc1 [BRD-K03390828-001-01-5] ?
0.925

----------
Test system: Plasmodium berghei (Pb-Luc) exoerythrocytic-stage parasites
Experimental setup: first series; concentration 0.00152416; fraction of control
Define the label as True when normalized signal at concentration 0.00152416 is strictly less than 0.9 and as False in all remaining cases.

// below: answered compounds
C[C@@H]1CN([C@@H](C)CO)C(=O)c2cccc(NC(=O)c3ccc(-c4nccs4)cc3)c2O[C@H]1CN(C)C(=O)Nc1ccc(C(F)(F)F)cc1: False
C[C@@H]1CN([C@H](C)CO)C(=O)c2cc(N(C)C)ccc2O[C@@H](C)CCCCO[C@@H]1CN(C)S(=O)(=O)c1ccc(F)cc1: False
Cc1cccc(-c2ccc(C3[C@@H]4CN(C(=O)CN(C)C)C[C@H]3N4)cc2)c1 (stereo partly drawn): True

For this compound, is normalized signal at concentration 0.00152416 lower than 0.9? `CCc1csc(N2[C@H](CO)[C@H](c3ccccc3)[C@@H]2CNC)n1`
True

Decide: normalized signal at concentration 0.00152416 of `C[C@H]1CCCCO[C@H](CN(C)S(=O)(=O)c2ccc(F)cc2)[C@@H](C)CN([C@@H](C)CO)C(=O)c2cc(N(C)C)ccc2O1` strictly below 0.9?
False

----------
System: Plasmodium berghei (Pb-Luc) exoerythrocytic-stage parasites
Experimental setup: first series of columns; concentration 0.123457; fraction of control
In plain terms, low normalized signal at concentration 0.123457, meaning strictly below 1, gives satisfied, and everything else gives not satisfied.

Solved entries (count: 6):
O=C(O)C[C@H]1CC[C@@H]2[C@H](COC[C@@H](O)CN2S(=O)(=O)c2ccc(Oc3ccccc3)cc2)O1 [BRD-K61788733-001-01-3]: satisfied
C[C@H](CO)N1C[C@H](C)[C@H](CN(C)S(=O)(=O)c2ccc(F)cc2)OCCCC[C@H](C)Oc2ccc(N(C)C)cc2C1=O [BRD-K59130783-001-01-1]: not satisfied
COc1cccc(S(=O)(=O)N2CCCCN3[C@H](CO)[C@H](c4ccc(C#CCC(C)C)cc4)[C@H]3C2)c1 [BRD-K69197522-001-01-4]: satisfied
C[C@H]1CN([C@@H](C)CO)C(=O)CCCn2cc(nn2)CO[C@H]1CN(C)C(=O)Nc1cccc2ccccc12 [BRD-K54628954-001-01-2]: satisfied
CO[C@H]1CN(C)C(=O)c2cc(NC(=O)c3cccc(F)c3)ccc2OC[C@H](C)N(C)C[C@H]1C [BRD-K79512815-001-01-8]: satisfied
Cc1noc(C)c1S(=O)(=O)N(C)C[C@H]1OCc2cn(nn2)CCCC(=O)N([C@@H](C)CO)C[C@@H]1C [BRD-K72210630-001-02-7]: satisfied

State whether 1 exceeds normalized signal at concentration 0.123457 recorded for O=C(Nc1ccc2c(c1)[C@@H]1C[C@@H](CC(=O)N3CCc4ccccc4C3)O[C@@H](CO)[C@@H]1O2)c1ccc2c(c1)OCO2 [BRD-K15778794-001-01-7] .
satisfied

A record lists Cc1noc(C)c1S(=O)(=O)N(C)C[C@@H]1OCCCC[C@@H](C)Oc2ccc(N(C)C)cc2C(=O)N([C@@H](C)CO)C[C@H]1C [BRD-K31367750-001-01-1] . Is its normalized signal at concentration 0.123457 below 1?
not satisfied

----------
Test system: Plasmodium berghei (Pb-Luc) exoerythrocytic-stage parasites
Measurement description: microbe, parasite or virus in culture
Experimental setup: read-out: Inhibition% @ 50 uM rep2
Quantity kind: inhibition at 50 µM (%)
Report the figure in % without appending any unit label.

COc1ccc2c(c1)OC(O)(C(F)(F)C(F)(F)F)CC2=O (stereo not shown): 98

Value lookup for inhibition at 50 µM; key = `CCc1ccc(Nc2cc(C)nc3nc(C)nn23)cc1`
91

Given CCOc1c(Cl)cc(CNCC(O)c2ccccc2)cc1OC (stereo not shown) , state its recorded inhibition at 50 µM.
96

# input compound: `CCn1c(CN2CCN(Cc3ccccc3)CC2)nc2cc(NC(=O)c3cccs3)ccc21` ; wanted: its inhibition at 50 µM
102

----------
System: Plasmodium berghei (Pb-Luc) exoerythrocytic-stage parasites
Measurement description: microbe, parasite or virus in culture
Experimental setup: read-out: Inhibition% @ 50 uM rep2
Catalogue of inhibition at 50 µM values
# number only, unit % dropped from output

Previously resolved entries follow.
COc1ccc(C2Sc3ccccc3N=C3C2=C(O)c2ccccc23)cc1 (centres unmarked) [MMV000563]: 104
O=C(NC1CCCC1)c1ccc(N2CCC(NCc3cccc(C(F)(F)F)c3)CC2)cc1 [MMV666070]: 96
COc1ccc(C(=O)Nc2ccc(Cl)cc2C(=O)Nc2ccncc2)cc1 [MMV665799]: 39
COc1ccc2nc(N)nc(C)c2c1 [MMV665897]: 101

Endpoint output: inhibition at 50 µM of O=c1nc(C=Cc2ccc(Br)cc2)oc2ccccc12 [MMV666599] . Value?
103

----------
Test system: Plasmodium berghei (Pb-Luc) exoerythrocytic-stage parasites
Experimental setup: first series; concentration 0.0137174; fraction of control
Quantity kind: normalized signal at concentration 0.0137174
Format: numeric value only, no unit, no commentary.

C/C=C/c1ccc([C@H]2[C@@H](CO)N(CC3CCCCC3)[C@H]2CNC(C)C)cc1: 1.14
CN(C)c1ccc2c(c1)[C@@H]1C[C@@H](CC(=O)NC3CCCCC3)O[C@@H](CO)[C@@H]1O2: 0.90
CN(C)C(=O)c1ccc(-c2ccc([C@@H]3[C@H]4CN(C(=O)CC5CC5)CC(=O)N4[C@H]3CO)cc2)cc1: 0.77
CC(C)[C@H]1COCn2nncc2CCCC(=O)N1: 0.81
O=S(=O)(c1cccs1)N1CCCCN2[C@H](CO)[C@H](c3ccc(/C=C/c4ccccc4)cc3)[C@H]2C1: 1.09
C[C@H]1CCCCO[C@H](CN(C)S(=O)(=O)c2ccc(F)cc2)[C@@H](C)CN([C@@H](C)CO)C(=O)c2cc(N(C)C)ccc2O1: 0.78

Need normalized signal at concentration 0.0137174, item `COc1ccc(NC(=O)N(C)C[C@H]2Oc3ccc(NC(=O)CCN4CCOCC4)cc3C(=O)N([C@H](C)CO)C[C@@H]2C)cc1`
0.75

Value lookup for normalized signal at concentration 0.0137174; key = `C[C@@H]1CN([C@@H](C)CO)C(=O)c2cccc(NC(=O)C3CC3)c2O[C@@H]1CN(C)C(=O)Nc1ccc(C(F)(F)F)cc1`
1.106

So what's the measured normalized signal at concentration 0.0137174 for this one? `C[C@@H]1CN([C@H](C)CO)C(=O)c2cc(N(C)C)ccc2O[C@@H](C)CCCCO[C@H]1CN(C)S(=O)(=O)c1ccc(F)cc1`
1.11

Consider the compound shown here: `C[C@@H]1CN([C@@H](C)CO)C(=O)c2cccc(NC(=O)c3ccc(-c4nccs4)cc3)c2O[C@H]1CN(C)C(=O)Nc1ccc(C(F)(F)F)cc1` What is its recorded normalized signal at concentration 0.0137174?
0.64

For the compound `C[C@@H]1CCCCO[C@@H](CN(C)S(=O)(=O)c2ccc(F)cc2)[C@@H](C)CN([C@@H](C)CO)C(=O)c2cc(N(C)C)ccc2O1` , what normalized signal at concentration 0.0137174 is on record?
1.0389

For the compound `C[C@@H]1CN([C@H](C)CO)C(=O)c2cc(N(C)C)ccc2O[C@@H](C)CCCCO[C@@H]1CN(C)S(=O)(=O)c1ccc(F)cc1` , what normalized signal at concentration 0.0137174 is on record?
0.89

Would you mind telling me what normalized signal at concentration 0.0137174 value was observed for `COc1cccc(CN2[C@H](CO)[C@@H](c3ccccc3)C23CN(Cc2ccccc2OC)C3)c1` ?
0.89

Please report the recorded normalized signal at concentration 0.0137174 for Cc1cccc(-c2ccc(C3[C@@H]4CN(C(=O)CN(C)C)C[C@H]3N4)cc2)c1 (some centres unmarked) .
0.97

Cited source: paper PMC4890880
